Target: MCH-1R (UniProt Q99705)
Assay: MCH-1R competition binding assay
Quick reference for Ki among some compounds
Provide the reading as a plain figure in nM.

chemSmiles: CCN(CC)Cc1ccc2c(c1)CC[C@H](n1cnc3cc(-c4ccc(Cl)cc4)sc3c1=O)C2
uom: nM
recordedResult: 13

Give recorded Ki. CS(=O)(=O)N1CCN(Cc2ccc3c(c2)CC[C@H](n2cnc4cc(-c5cccs5)sc4c2=O)C3)CC1 122

Give recorded Ki. CS(=O)(=O)N1CCN(Cc2ccc3c(c2)CC[C@H](n2cnc4cc(-c5cc(F)cc(F)c5)sc4c2=O)C3)CC1 117

----------
Quick reference for Ki among some compounds
Biological target: 5-HT2c receptor (Homo sapiens, UniProt P28335)
Construct: purchased Perkin-Elmer or Euroscreen (named only as possible suppliers)
Sequence (P28335 33-458): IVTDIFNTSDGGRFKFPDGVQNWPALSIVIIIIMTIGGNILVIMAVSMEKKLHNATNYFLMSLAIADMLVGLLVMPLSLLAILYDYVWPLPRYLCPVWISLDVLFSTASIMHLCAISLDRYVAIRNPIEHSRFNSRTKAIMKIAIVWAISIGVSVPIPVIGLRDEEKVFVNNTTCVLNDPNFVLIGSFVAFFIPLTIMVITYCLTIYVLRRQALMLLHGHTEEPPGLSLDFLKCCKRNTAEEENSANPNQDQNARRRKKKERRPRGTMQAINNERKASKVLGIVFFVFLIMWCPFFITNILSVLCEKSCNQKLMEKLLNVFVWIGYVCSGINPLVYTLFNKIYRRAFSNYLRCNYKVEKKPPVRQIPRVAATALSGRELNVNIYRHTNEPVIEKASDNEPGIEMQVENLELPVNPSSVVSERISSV
Assay: 5-HT2c receptor binding assay (3H-mesulergine competition)
Details: 1 nM 3H-mesulergine; read-out: Ki (nM) binding data 5-HT2C

compound: CC(=O)N1CCN(Cc2ccc3c(c2)CC[C@H](n2cnc4cc(-c5cncc(Cl)c5)sc4c2=O)C3)CC1
Ki: > 100000 nM
--
compound: CS(=O)(=O)N1CCN(Cc2ccc3c(c2)CC[C@H](n2cnc4cc(-c5ccc(Cl)cc5Cl)sc4c2=O)C3)CC1
Ki: > 100000 nM
--
compound: CC(=O)N1CCN(Cc2ccc3c(c2)CC[C@H](n2cnc4cc(-c5cc(F)cc(F)c5)sc4c2=O)C3)CC1
Ki: > 100000 nM
--
compound: C[C@H](O)CNCc1ccc2c(c1)CC[C@H](n1cnc3cc(-c4ccc(Cl)cc4)sc3c1=O)C2
Ki: 3080 nM
--
compound: COc1ccc(-c2cc3ncn([C@H]4CCc5cc(CN6CCN(C(C)=O)CC6)ccc5C4)c(=O)c3s2)cc1
Ki: > 100000 nM
--
compound: CC(=O)N1CCN(Cc2ccc3c(c2)CC[C@H](n2cnc4cc(-c5cncc(F)c5)sc4c2=O)C3)CC1
Ki: > 100000 nM
--
compound: CC(=O)N1CCN(Cc2ccc3c(c2)CC[C@H](n2cnc4cc(-c5cccs5)sc4c2=O)C3)CC1
Ki: 1760 nM
--
compound: CC(=O)N1CC2CC1CN2Cc1ccc2c(c1)CC[C@H](n1cnc3cc(-c4ccc(Cl)cc4)sc3c1=O)C2 (stereo partly drawn)
Ki: > 100000 nM

Pending compound:
Give Ki; test system 5-HT2c receptor (Homo sapiens, UniProt P28335); compound CC(=O)N1CCN(Cc2ccc3c(c2)CC[C@H](n2cnc4cc(-c5ccc(Cl)cc5Cl)sc4c2=O)C3)CC1 2370 nM
